- protocol.summary: Inhibition of PGHS-1 in human platelet rich plasma assessed as inhibition of arachidonic acid-induced platelet aggregation in human platelet rich plasma treated 5 min before arachidonic acid challenge by turbidimetry
pIC50: −log10 of the molar value.
property.name: pIC50

{"structure.smiles": "COC(=O)CCCCc1cccc(C(=O)OC)c1OC(C)=O", "recorded.result": 3.14}
